Test system: BJ, B16-F10, T47D, T47Dp53 and HeLa cells
Test: Cell cycle assay (propidium iodide flow cytometry), cell line panel
Format: cell-based
Details: 150 nM oligomeric compound, 4.5 μg/ml LIPOFECTIN, after 72 hours, propidium iodide flow cytometry
In the oligonucleotide strings, read from the 5' end, every base follows the letter of its sugar. An asterisk marks phosphorothioate; unmarked linkages are phosphodiester. Other units and linkages are bracketed, terminal groups are in braces. A string of capitals states the bases alone. e = 2'-O-(2-methoxyethyl) (MOE); [5mC] = 5-methylcytosine; d = 2'-deoxy (DNA)
Some substances, each annotated with its measured SubG1 (percentage of cells in phase of the cell cycle).
Property Label: SubG1 (percentage of cells in phase of the cell cycle)

Substance	Assay Value
327901 (antisense eT*eG*eA*eG*e[5mC]*eT*eA*e[5mC]*eA*eG*eT*eG*e[5mC]*eT*eT*e[5mC]*eA*eT*e[5mC]*eT*e[5mC]*eA) [compound 327901]	12%
327914 (antisense eG*e[5mC]*e[5mC]*e[5mC]*eT*eT*eT*eT*eA*eA*e[5mC]*eA*eT*eT*eG*e[5mC]*eA*e[5mC]*eT*eG) [compound 327914]	8.5%
327951 (antisense e[5mC]*eA*e[5mC]*eA*eA*eA*e[5mC]*e[5mC]*eA*eT*eT*eA*eT*eG*eT*eG*e[5mC]*eT*eG*e[5mC]*eT*eA) [compound 327951]	4.3%
328364 (eT*e[5mC]*eT*eT*eA*dA*dG*dT*d[5mC]*dA*d[5mC]*dA*dA*dA*dT*e[5mC]*eA*eG*e[5mC]*eA) [compound 328364]	1.9%
327888 (antisense eA*eA*eT*eG*e[5mC]*e[5mC]*e[5mC]*e[5mC]*eT*eA*eA*eA*eA*eA*eT*e[5mC]*e[5mC]*eT*eT*eA*eT) [compound 327888]	13.3%
327905 (antisense e[5mC]*eA*eG*eA*e[5mC]*eT*e[5mC]*e[5mC]*eG*eG*eT*eG*eG*eA*eA*eT*eG*eA*eA*eG*eG*eA) [compound 327905]	8.5%
328362 (eT*eG*eT*eG*eT*dT*dT*dT*d[5mC]*dT*dG*dA*d[5mC]*dT*d[5mC]*eA*eG*eT*e[5mC]*eA) [compound 328362]	9.1%
NNNNNNNNNNNNNNNNNNNN [ISIS 29848, reference compound]	9.6%
328773 (antisense eT*eA*e[5mC]*eT*eT*dT*dA*d[5mC]*dT*d[5mC]*d[5mC]*dA*dA*dG*dG*eT*eT*eT*eT*eA) [compound 328773]	2.7%
327907 (antisense eA*eG*e[5mC]*e[5mC]*eT*eA*eT*e[5mC]*e[5mC]*eT*eG*eG*eA*eT*eT*eA*e[5mC]*eT*eT*eG*eA*eA) [compound 327907]	17.8%
327922 (antisense eT*e[5mC]*eA*eG*eT*eT*eT*eT*eG*e[5mC]*eA*eT*eG*eG*eA*eT*eT*eT*eG*e[5mC]*eA*e[5mC]*eA) [compound 327922]	10%
327911 (antisense eG*e[5mC]*eT*eA*e[5mC]*e[5mC]*eT*eG*e[5mC]*eA*e[5mC]*eT*eG*eT*eA*eA*eG*e[5mC]*eA*e[5mC]*eT*eT*eT*eT) [compound 327911]	10.9%
327910 (antisense eT*eG*eA*eT*eA*eG*e[5mC]*e[5mC]*e[5mC]*eT*eG*eT*eA*e[5mC]*eA*eA*eT*eG*e[5mC]*eT*eG*e[5mC]*eT) [compound 327910]	9.3%
328382 (e[5mC]*eA*eG*eA*e[5mC]*dT*d[5mC]*d[5mC]*d[5mC]*dA*dA*d[5mC]*dT*dG*dA*e[5mC]*e[5mC]*eA*eG*eA) [compound 328382]	2.9%
327941 (antisense eA*eA*e[5mC]*e[5mC]*e[5mC]*eA*e[5mC]*e[5mC]*eG*eA*e[5mC]*eA*eG*e[5mC]*eA*eA*eT*eG*eA*eA*eT*eG*eT*eT) [compound 327941]	8.2%
328396 (antisense e[5mC]*eT*eG*eG*eT*dT*dG*dG*dG*dT*dA*dT*dG*dA*dG*eA*e[5mC]*eA*eG*eA) [compound 328396]	4.6%
328388 (eT*e[5mC]*e[5mC]*e[5mC]*eA*dT*dA*dG*d[5mC]*dA*dG*dG*dG*d[5mC]*dA*eG*eA*eG*e[5mC]*e[5mC]; antisense) [compound 328388]	4.0%
328644 (eG*eA*e[5mC]*eA*eA*dG*dG*dT*dG*dG*dG*dA*dG*d[5mC]*dG*eA*eG*eT*eG*eG; antisense) [compound 328644]	7.2%
327878 (antisense e[5mC]*eT*eA*eG*eT*eG*eG*eT*e[5mC]*e[5mC]*eT*eA*eA*eA*e[5mC]*eA*eT*eT*eT*e[5mC]*eA*e[5mC]) [compound 327878]	17.3%
340348 (antisense CTACCTGCACGAACAGCACTTT; all 2'-MOE, all phosphorothioate, methylation of C not given here) [compound 340348]	14.1%
327934 (antisense eG*eG*eT*eA*e[5mC]*eA*eA*eT*e[5mC]*eA*eA*e[5mC]*eG*eG*eT*e[5mC]*eG*eA*eT*eG*eG*eT) [compound 327934]	6.6%
327906 (antisense eT*e[5mC]*eA*eT*eA*eG*e[5mC]*e[5mC]*e[5mC]*eT*eG*eT*eA*e[5mC]*eA*eA*eT*eG*e[5mC]*eT*eG*e[5mC]*eT) [compound 327906]	15.2%

---

Tested on: HeLa cells
Assay: Cell cycle assay in HeLa cells
Format: cell-based, human
Conditions: HeLa cells, 150 nM oligomeric compound, 24 hours, relative to untreated control (UTC = 100)
In the oligonucleotide strings, read from the 5' end, every base follows the letter of its sugar. An asterisk marks phosphorothioate; unmarked linkages are phosphodiester. Other units and linkages are bracketed, terminal groups are in braces. A string of capitals states the bases alone. e = 2'-O-(2-methoxyethyl) (MOE); [5mC] = 5-methylcytosine; d = 2'-deoxy (DNA)

Substance	Unit Of Measure	% cells in cell cycle phase G1
328687 (eG*e[5mC]*eT*eT*e[5mC]*d[5mC]*d[5mC]*dA*dG*d[5mC]*dG*dG*d[5mC]*d[5mC]*dT*eA*eT*eA*eG*eT; antisense) [compound 328687]	%	80
328647 (eG*eG*eA*eG*eT*dA*dG*dA*dT*dG*dA*dT*dG*dG*dT*eT*eA*eG*e[5mC]*e[5mC]; antisense) [compound 328647]	%	101
328424 (antisense eA*eG*eG*eA*eA*dG*d[5mC]*dA*d[5mC]*dA*d[5mC]*dA*dT*dT*dA*eT*e[5mC]*eA*e[5mC]*eA) [compound 328424]	%	110
341785 (antisense GGAGTGAAGACACGGAGCCAGA; all 2'-MOE, all phosphorothioate, methylation of C not given here) [compound 341785]	%	152
338836 (antisense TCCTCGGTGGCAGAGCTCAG; all 2'-MOE, all phosphorothioate, methylation of C not given here) [compound 338836]	%	185
328724 (antisense eG*eA*e[5mC]*eA*eT*d[5mC]*dA*dT*dG*dT*dG*dA*dT*dT*dT*eG*e[5mC]*eT*e[5mC]*eA) [compound 328724]	%	91
327907 (antisense eA*eG*e[5mC]*e[5mC]*eT*eA*eT*e[5mC]*e[5mC]*eT*eG*eG*eA*eT*eT*eA*e[5mC]*eT*eT*eG*eA*eA) [compound 327907]	%	119
338637 (antisense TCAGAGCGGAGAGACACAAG; all 2'-MOE, all phosphorothioate, methylation of C not given here) [compound 338637]	%	170
327908 (antisense e[5mC]*eA*eA*eT*eG*e[5mC]*eA*eA*e[5mC]*eT*eA*e[5mC]*eA*eA*eT*eG*e[5mC]*eA*e[5mC]) [compound 327908]	%	98
338713 (antisense ACCTCTCAGGAAGACGGACT; all 2'-MOE, all phosphorothioate, methylation of C not given here) [compound 338713]	%	152
327892 (antisense eA*e[5mC]*eT*eT*eT*e[5mC]*eG*eG*eT*eT*eA*eT*e[5mC]*eT*eA*eG*e[5mC]*eT*eT*eT*eA) [compound 327892]	%	86

---

Some substances, each annotated with its measured % cells in cell cycle phase S.
Test system: HeLa cells
Experiment: Cell cycle assay in HeLa cells
Assay type: cell-based, human
Details: HeLa cells, 150 nM, 48 hours, relative to untreated control
In the oligonucleotide strings, read from the 5' end, every base follows the letter of its sugar. An asterisk marks phosphorothioate; unmarked linkages are phosphodiester. Other units and linkages are bracketed, terminal groups are in braces. A string of capitals states the bases alone. e = 2'-O-(2-methoxyethyl) (MOE); [5mC] = 5-methylcytosine; d = 2'-deoxy (DNA)

Substance	% cells in cell cycle phase S
338666 (antisense TCACGTGGAGAGGAGTTAAA; all 2'-MOE, all phosphorothioate, methylation of C not given here) [compound 338666]	98%
328759 (antisense eG*eA*eG*eG*eG*dA*dT*dT*dG*dT*dA*dT*dG*dA*dA*e[5mC]*eA*eT*e[5mC]*eT) [compound 328759]	82%
25691 (antisense eG*e[5mC]*e[5mC]*eA*eA*dG*dG*d[5mC]*dG*dT*dG*dA*d[5mC]*dA*dT*eG*eA*eT*eA*eT) [compound 25691]	141%
338833 (antisense TCGTGCACCTGAGGAGTCTG; all 2'-MOE, all phosphorothioate, methylation of C not given here) [compound 338833]	100%
